- Protocol Notes: Terminal half life in C57BL/6 mouse plasma at 1 mg/kg, sc by LC-MS analysis
- Assay type: ADME, organism-based
- Condition Label: read-out: beta t1/2 (converted)
Numbered stars: 1 amine (or outer) side, 2 acyl side, 3 side chain; on linkers, the order of the positions; unused ones are H or OH. Bridge positions count the residues as written; N and C are the ends. Peptide text beside a SMILES is read from it. * marks the point of attachment. X1 = O=C(O)CCCCCCCCCCCCCCCCC(=O)N[C@@H](CCCCNC(=O)CCOCCOCCNC(=O)CCOCCOCCNC(=O)C*)C(=O)O; X2 = O=C(CCC[*:2])[*:1]
Experimental Readout: half-life (min)

| Compound | Result |
| --- | --- |
| CC[C@H](C)[C@@H]1NC(=O)[C@H](Cc2ccc(O)cc2)NC(=O)CCCSC[C@@H](C(=O)NCC(=O)N[C@@H](CSCC(=O)NCCOCCOCCC(=O)NCCOCCOCCC(=O)NCCCC[C@H](NC(=O)CCCCCCCCCCCCCCCCC(=O)O)C(=O)O)C(=O)NCC(N)=O)NC(=O)[C@H](CC(N)=O)NC(=O)[C@H](CCC(N)=O)NC1=O (YIQNCGC(X1)G-NH2; linker N-5 via X2) | 1450 |
